Value source: patent US9296723B2

Target: NAMPT (Homo sapiens)
Sequence (P43490 whole entry): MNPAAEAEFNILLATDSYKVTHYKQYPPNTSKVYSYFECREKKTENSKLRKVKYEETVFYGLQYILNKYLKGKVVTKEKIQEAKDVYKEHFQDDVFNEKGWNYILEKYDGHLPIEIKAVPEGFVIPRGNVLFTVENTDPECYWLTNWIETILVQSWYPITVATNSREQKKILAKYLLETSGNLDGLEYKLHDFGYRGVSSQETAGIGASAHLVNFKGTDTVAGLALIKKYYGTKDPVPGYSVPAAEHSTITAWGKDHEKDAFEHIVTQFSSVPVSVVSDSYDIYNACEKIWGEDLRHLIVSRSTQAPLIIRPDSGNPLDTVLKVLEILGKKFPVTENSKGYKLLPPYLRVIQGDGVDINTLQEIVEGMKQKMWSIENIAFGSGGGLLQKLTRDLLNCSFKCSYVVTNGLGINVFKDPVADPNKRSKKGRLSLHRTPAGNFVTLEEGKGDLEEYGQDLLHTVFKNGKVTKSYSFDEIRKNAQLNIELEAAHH
Assay: TR-FRET Binding Assay of NAMPT with PRPP
Conditions: 2 nM NAMPT, 2 nM probe, 200 µM PRPP and 2.5 mM ATP, equilibrated 16 hours
IC50 values for the molecules below.

[
  {
    "molecule": "CC(C)(C)OC(=O)N1CCC(c2ccc(NC(=O)N3CC(c4cccnc4Cl)C3)cc2)CC1",
    "assay-system": "NAMPT (Homo sapiens)",
    "IC50": "45.9 nM"
  },
  {
    "molecule": "O=C(Nc1ccc(C2CCN(CC3CCCCC3)CC2)cc1)N1CC(c2cccnc2)C1",
    "assay-system": "NAMPT (Homo sapiens)",
    "IC50": "0.181 nM"
  },
  {
    "molecule": "O=C(Nc1ccc(C2CN(C(=O)c3ccsc3)C2)cc1)N1CC(c2cccnc2)C1",
    "assay-system": "NAMPT (Homo sapiens)",
    "IC50": "0.29 nM"
  },
  {
    "molecule": "CC(C)CCC(=O)N1CC(Oc2ccc(NC(=O)N3CC(c4cccnc4)C3)cc2)C1",
    "assay-system": "NAMPT (Homo sapiens)",
    "IC50": "0.375 nM"
  },
  {
    "molecule": "O=C(Nc1ccc(C2CCN(C(=O)[C@H]3CCCO3)C2)cc1)N1CC(c2cccnc2)C1 (some centres unmarked)",
    "assay-system": "NAMPT (Homo sapiens)",
    "IC50": "0.171 nM"
  },
  {
    "molecule": "O=C(Nc1ccc(O[C@@H]2CCN(C(=O)c3nccs3)C2)cc1)N1CC(c2cccnc2)C1",
    "assay-system": "NAMPT (Homo sapiens)",
    "IC50": "0.197 nM"
  },
  {
    "molecule": "O=C(CC1CC1)N1CC=C(c2ccc(NC(=O)N3CC(c4cccnc4)C3)cc2)CC1",
    "assay-system": "NAMPT (Homo sapiens)",
    "IC50": "0.724 nM"
  },
  {
    "molecule": "O=C(Nc1ccc(C2CN(C(=O)[C@@H]3CCCO3)C2)cc1)N1CC(c2cccnc2)C1",
    "assay-system": "NAMPT (Homo sapiens)",
    "IC50": "0.286 nM"
  }
]
